The measured values listed here are drawn from ChEMBL document CHEMBL4665765.

test: Therapeutic index, ratio of EC50 for cytotoxicity against human BJ cells to EC50 for antimalarial activity against Plasmodium falciparum 3D7; format: toxicity, cell-based; conditions: read-out: Ratio EC50
Checkbox rule: selectivity ratio lower than 2 = met; selectivity ratio not lower than 2 = not met.

>>> labelvalue("CCn1c2c(c3cc(Cl)ccc31)CCNC2C (configuration not stated)")
"met"
>>> labelvalue("Oc1ccc(C2NCCc3c2[nH]c2ccc(Cl)cc32)cc1 (configuration not stated)")
"not met"
>>> labelvalue("Clc1ccc2[nH]c3c(c2c1)CCNC3c1ccccc1Cl (configuration not stated)")
"not met"
>>> labelvalue("Clc1cccc(C2NCCc3c2[nH]c2ccc(Cl)cc32)c1 (configuration not stated)")
"not met"
>>> labelvalue("Cc1ccccc1C1NCCc2c1[nH]c1ccc(Cl)cc21 (configuration not stated)")
"not met"
>>> labelvalue("Oc1ccccc1C1NCCc2c1[nH]c1ccc(Cl)cc21 (configuration not stated)")
"not met"
>>> labelvalue("Clc1ccc2[nH]c3c(c2c1)CCNC3c1cccc2ccccc12 (configuration not stated)")
"not met"
>>> labelvalue("CC1NCCc2c1n(C)c1ccc(Cl)cc21 (configuration not stated)")
"met"
>>> labelvalue("Cc1cccc(C2NCCc3c2[nH]c2ccc(Cl)cc32)c1 (configuration not stated)")
"not met"
